Ref: patent US20240140975A1

assay-protocol: Pharmacokinetic evaluation in mice
conditions: male, CD-1, mouse, in vivo, iv, 25 mg/kg
measurement-type: AUC(0-inf) (ng·h/mL)
Give just the numeric value; ng·h/mL need not be written.

[Q] Recorded AUC(0-inf) of N#C[C@@]1(c2ccc3c(N)ncnn23)O[C@H](CO)[C@@H](O)[C@H]1O [GS-441524, reference compound] , please.
[A] 14600

----------
Tested on: dengue fever virus (DENV)
assay-protocol: Dengue virus plaque reduction test in Vero cells
Type: cell-based
conditions: Dengue virus, read-out: DENV (Vero) 5 μM (inhibition rate), 5 μM, plaque reduction
measurement-type: inhibition at 5 µM (%)
Give just the numeric value; % need not be written.

[Q] Recorded inhibition at 5 µM of [2H]c1cc([C@]2(C#N)O[C@H](CO)[C@@H](O)[C@H]2O)n2ncnc(N)c12 [Compound A9] , please.
[A] 100

[Q] Recorded inhibition at 5 µM of CCC(CC)COC(=O)[C@H](C)N[P@](=O)(OC[C@H]1O[C@@](C#N)(c2ccc3c(N)ncnn23)[C@H](O)[C@@H]1O)Oc1ccccc1 [Remdesivir, reference compound] , please.
[A] 100

[Q] Recorded inhibition at 5 µM of CO[C@@H]1[C@H](O)[C@@H](CO)O[C@@]1(C#N)c1ccc2c(N)ncnn12 [Compound A221] , please.
[A] 51

[Q] Recorded inhibition at 5 µM of Nc1ncnn2c([C@]3(C4CC4)O[C@H](CO)[C@@H](O)[C@H]3O)ccc12 [Compound A28] , please.
[A] 6

[Q] Recorded inhibition at 5 µM of N#C[C@@]1(c2ccc3c(N)ncnn23)O[C@H](CO)[C@@H](O)[C@H]1O [Compound A216] , please.
[A] 24

----------
target-of-assay: RNA-dependent RNA polymerase (RdRp) of 2019 novel coronavirus (SARS-CoV-2) (Severe acute respiratory syndrome coronavirus 2 (2019-nCoV) (SARS-CoV-2), UniProt P0DTD1)
assay-protocol: Inhibition of RdRp of novel coronavirus, fluorescence method
Type: biochemical
conditions: RdRp of 2019 novel coronavirus
measurement-type: IC50

[Q] Recorded IC50 of N#C[C@@]1(c2cc(F)c3c(N)ncnn23)O[C@H](COP(=O)(O)OP(=O)(O)OP(=O)(O)O)[C@@H](O)[C@H]1O , please.
[A] 1 to 10 µM

----------
assay-protocol: in vivo
conditions: male, CD-1, mouse, po, 50 mg/kg
measurement-type: half-life
The reply should consist of the numeric value with the unit placed after it.

[Q] Recorded half-life of [2H]c1cc([C@]2(C#N)O[C@H](CO)[C@@H](O)[C@H]2O)n2ncnc(N)c12 [Compound A9] , please.
[A] 1 h

[Q] Recorded half-life of N#C[C@@]1(c2ccc3c(N)ncnn23)O[C@H](CO)[C@@H](O)[C@H]1O [GS-441524, reference compound] , please.
[A] 1.2 h

[Q] Recorded half-life of [2H]c1cc([C@]2(C#N)O[C@H](C([2H])([2H])O)[C@@H](O)[C@H]2O)n2ncnc(N)c12 (stereo in doubt) [Compound A11] , please.
[A] 1.9 h

[Q] Recorded half-life of [2H]C([2H])(O)[C@H]1O[C@@](C#N)(c2ccc3c(N)ncnn23)[C@H](O)[C@@H]1O [Compound A10] , please.
[A] 1.3 h

----------
assay-protocol: Pharmacokinetic evaluation in mice
conditions: male, CD-1, mouse, in vivo, po, 50 mg/kg
Exercise: state measured Cmax for each of the compounds provided.
Give just the numeric value; ng/mL need not be written.

[Q] Recorded Cmax of [2H]C([2H])(O)[C@H]1O[C@@](C#N)(c2ccc3c(N)ncnn23)[C@H](O)[C@@H]1O , please.
[A] 1760

[Q] Recorded Cmax of [2H]c1cc([C@]2(C#N)O[C@H](C([2H])([2H])O)[C@@H](O)[C@H]2O)n2ncnc(N)c12 (stereo in doubt) , please.
[A] 2120

[Q] Recorded Cmax of [2H]c1cc([C@]2(C#N)O[C@H](CO)[C@@H](O)[C@H]2O)n2ncnc(N)c12 , please.
[A] 3230

----------
assay-protocol: Pharmacokinetic evaluation in mice
conditions: male, CD-1, mouse, in vivo, po, 50 mg/kg
measurement-type: AUC(0-inf) (ng·h/mL)
Give just the numeric value; ng·h/mL need not be written.

[Q] Recorded AUC(0-inf) of [2H]C([2H])(O)[C@H]1O[C@@](C#N)(c2ccc3c(N)ncnn23)[C@H](O)[C@@H]1O , please.
[A] 4620

[Q] Recorded AUC(0-inf) of N#C[C@@]1(c2ccc3c(N)ncnn23)O[C@H](CO)[C@@H](O)[C@H]1O [GS-441524, reference compound] , please.
[A] 4620

[Q] Recorded AUC(0-inf) of [2H]c1cc([C@]2(C#N)O[C@H](CO)[C@@H](O)[C@H]2O)n2ncnc(N)c12 , please.
[A] 6010

[Q] Recorded AUC(0-inf) of [2H]c1cc([C@]2(C#N)O[C@H](C([2H])([2H])O)[C@@H](O)[C@H]2O)n2ncnc(N)c12 (stereo in doubt) , please.
[A] 5750

----------
assay-protocol: in vivo
conditions: male, CD-1, mouse, iv, 25 mg/kg
measurement-type: half-life (h)
Give just the numeric value; h need not be written.

[Q] Recorded half-life of N#C[C@@]1(c2ccc3c(N)ncnn23)O[C@H](CO)[C@@H](O)[C@H]1O [GS-441524, reference compound] , please.
[A] 1

----------
assay-protocol: Pharmacokinetic evaluation in mice
conditions: male, CD-1, mouse, in vivo, po, 50 mg/kg
Exercise: state measured Tmax for each of the compounds provided.
Give just the numeric value; min need not be written.

[Q] Recorded Tmax of [2H]c1cc([C@]2(C#N)O[C@H](CO)[C@@H](O)[C@H]2O)n2ncnc(N)c12 [Compound A9] , please.
[A] 72

[Q] Recorded Tmax of [2H]c1cc([C@]2(C#N)O[C@H](C([2H])([2H])O)[C@@H](O)[C@H]2O)n2ncnc(N)c12 (stereo in doubt) [Compound A11] , please.
[A] 42

[Q] Recorded Tmax of [2H]C([2H])(O)[C@H]1O[C@@](C#N)(c2ccc3c(N)ncnn23)[C@H](O)[C@@H]1O [Compound A10] , please.
[A] 48

----------
assay-protocol: in vitro
conditions: human
measurement-type: CC50

[Q] Recorded CC50 of [2H]c1cc([C@]2(C#N)O[C@H](CO)[C@@H](OC(=O)[C@@H](N)C(C)C)[C@H]2O)n2ncnc(N)c12 , please.
[A] > 10 µM

[Q] Recorded CC50 of [2H]c1cc([C@]2(C#N)O[C@H](COC(=O)C(C)C)[C@@H](O)[C@H]2O)n2ncnc(N)c12 , please.
[A] > 10 µM

[Q] Recorded CC50 of N#C[C@@]1(c2ccc3c(N)ncnn23)O[C@H](CO)[C@@H](O)[C@H]1O [GS-441524, reference compound] , please.
[A] > 10 µM

[Q] Recorded CC50 of [2H]c1cc([C@]2(C#N)O[C@H](CO)[C@@H](O)[C@H]2O)n2ncnc(N)c12 , please.
[A] > 10 µM

[Q] Recorded CC50 of [2H]c1cc([C@]2(C#N)O[C@H](C([2H])([2H])O)[C@@H](O)[C@H]2O)n2ncnc(N)c12 (stereo in doubt) , please.
[A] > 10 µM

[Q] Recorded CC50 of [2H]c1cc([C@]2(C#N)O[C@H](CO)[C@@H](OC(=O)C(C)C)[C@H]2O)n2ncnc(N)c12 , please.
[A] > 10 µM

[Q] Recorded CC50 of [2H]C([2H])(O)[C@H]1O[C@@](C#N)(c2ccc3c(N)ncnn23)[C@H](O)[C@@H]1O , please.
[A] > 10 µM

[Q] Recorded CC50 of CCC(CC)COC(=O)[C@H](C)N[P@](=O)(OC[C@H]1O[C@@](C#N)(c2ccc3c(N)ncnn23)[C@H](O)[C@@H]1O)Oc1ccccc1 [Remdesivir, reference compound] , please.
[A] 25.7 µM
